Quantity Kind: melting point

// below: answered compounds
{"columns": ["Compound", "melting point"],
 "data": [
  ["N=C(N)c1cccc(CNC(=O)Cc2cn(Cc3cccc(C(=N)N)c3)c3ccccc23)c1.O=C(O)C(F)(F)F.O=C(O)C(F)(F)F", "196 °C (dec.)"],
  ["N=C(N)c1cccc(CNC(=O)c2cc3cc(O)ccc3n2Cc2cccc(C(=N)N)c2)c1.O=C(O)C(F)(F)F.O=C(O)C(F)(F)F", "125 °C (dec.)"],
  ["CC(=O)O.CC(=O)[O-].C[N+](C)(C)c1ccc(CNC(=O)c2cc3c(O)cccc3n2Cc2cccc(C(=N)N)c2)cc1 [Example 39]", "113 °C (dec.)"],
  ["COc1cccc2c1cc(C(=O)NCCc1cc[n+](C)cc1)n2Cc1cccc(C(=N)N)c1.O=C(O)C(F)(F)F.O=C([O-])C(F)(F)F", "164 °C (dec.)"]
]}

Prompt: Give the value of melting point reported for the following: N/C(=N\O)c1cccc(COC(=O)c2cc3ccccc3n2Cc2cccc(/C(N)=N/O)c2)c1 [Example 53]
Response: 114 to 116 °C

Prompt: Give the value of melting point reported for the following: `CN(C)c1ccc(CNC(=O)c2cn(Cc3cccc(C(=N)N)c3)c3ccccc23)cc1.O=C(O)C(F)(F)F.O=C(O)C(F)(F)F`
Response: 92 to 96 °C

Prompt: Give the value of melting point reported for the following: `C[N+](C)(C)c1ccc(CNC(=O)c2cc3cc(N)ccc3n2Cc2cccc(C(=N)N)c2)cc1.O=C(O)C(F)(F)F.O=C(O)C(F)(F)F.O=C([O-])C(F)(F)F`
Response: 114 °C (dec.)

###

Entries and their melting point values follow.
Structures can show the parent of a compound that is named as a salt.

{"columns": ["Compound", "melting point"],
 "data": [
  ["COc1cccc2c1cc(C(=O)NCCc1ccc(O)cc1)n2Cc1cccc(C(=N)N)c1.O=C(O)C(F)(F)F", "140 to 142 °C"],
  ["N=C(N)c1cccc(Cn2c(C(=O)NCc3cc(Cl)cc(Cl)c3)cc3c(O)cccc32)c1 (as salt: trifluoroacetic acid salt)", "117 °C"],
  ["CN(C)c1ccc(CNC(=O)c2cc3cc(F)ccc3n2Cc2cccc(C(=N)N)c2)cc1.O=C(O)C(F)(F)F.O=C(O)C(F)(F)F", "90 °C (dec.)"]
]}

Prompt: Give the value of melting point reported for the following: `CC(=O)O.CC(=O)[O-].Cc1cccc2c1cc(C(=O)NCc1ccc([N+](C)(C)C)cc1)n2Cc1cccc(C(=N)N)c1`
Response: 89 °C (dec.)

Prompt: Give the value of melting point reported for the following: `C[N+](C)(C)c1ccc(CNC(=O)c2cc3cc(F)ccc3n2Cc2cccc(C(=N)N)c2)cc1.O=C(O)C(F)(F)F.O=C([O-])C(F)(F)F`
Response: 120 to 124 °C

Prompt: Give the value of melting point reported for the following: CN1CCC(C(NC(=O)c2cc3ccccc3n2Cc2cccc(C(=N)N)c2)c2ccc3cc(Cl)ccc3c2)CC1.O=C(O)C(F)(F)F.O=C(O)C(F)(F)F (racemic)
Response: 110 to 120 °C

Prompt: Give the value of melting point reported for the following: `N=C(N)c1cccc(Cn2c(C(N)=O)cc3ccccc32)c1.O=C(O)C(F)(F)F`
Response: 278 °C (dec.)

Prompt: Give the value of melting point reported for the following: N=C(N)c1cccc(CNC(=O)c2cc3cc(OCc4ccccc4)ccc3n2Cc2cccc(C(=N)N)c2)c1 (as salt: hydroiodid) [Example 59, dihydroiodide]
Response: 138 °C (dec.)

###

Entries and their melting point values follow.

// below: answered compounds
{"columns": ["Smiles Input", "melting point"],
 "data": [
  ["N=C(N)c1ccc(Cn2c(C(=O)NCc3ccc(Cl)cc3)cc3ccccc32)cc1.O=C(O)C(F)(F)F", "268 °C (dec.)"],
  ["C[N+](C)(C)c1ccc(CNC(=O)c2cc3cc(O)ccc3n2Cc2cccc(C(=N)N)c2)cc1.O=C(O)C(F)(F)F.O=C([O-])C(F)(F)F", "78 °C (dec.)"],
  ["C[N+](C)(C)c1ccc(CNC(=O)c2cc3cc([N+](=O)[O-])ccc3n2Cc2cccc(C(=N)N)c2)cc1.O=C(O)C(F)(F)F.O=C([O-])C(F)(F)F", "120 °C (dec.)"],
  ["COc1cccc2c1cc(C(=O)NCCc1ccc(O)cc1)n2Cc1cccc(/C(N)=N/O)c1", "173 to 175 °C (dec.)"],
  ["Cc1cccc2c1cc(C(=O)NCc1ccc([N+](C)(C)Cc3ccccc3)cc1)n2Cc1cccc(C(=N)N)c1.O=C(O)C(F)(F)F.O=C([O-])C(F)(F)F", "113 °C (dec.)"],
  ["CC(=O)O.CC(=O)[O-].C[N+](C)(C)c1ccc(CNC(=O)c2cc3cc(F)ccc3n2Cc2cccc(C3=NCCN3)c2)cc1", "51 °C (dec.)"]
]}

Prompt: Give the value of melting point reported for the following: `C[N+](C)(C)c1ccc(CNC(=O)c2cc3c(OCc4ccccc4)cccc3n2Cc2cccc(C(=N)N)c2)cc1.[I-]`
Response: 158 °C (dec.)

Prompt: Give the value of melting point reported for the following: `CC(=O)O.CC(=O)[O-].COc1ccc2c(c1)cc(C(=O)NCc1ccc([N+](C)(C)C)cc1)n2Cc1cccc(C(=N)N)c1`
Response: 94 °C (dec.)

###

Target: human factor Xa (Homo sapiens, UniProt P00742)
Sequence (P00742 235-488 limits assumed): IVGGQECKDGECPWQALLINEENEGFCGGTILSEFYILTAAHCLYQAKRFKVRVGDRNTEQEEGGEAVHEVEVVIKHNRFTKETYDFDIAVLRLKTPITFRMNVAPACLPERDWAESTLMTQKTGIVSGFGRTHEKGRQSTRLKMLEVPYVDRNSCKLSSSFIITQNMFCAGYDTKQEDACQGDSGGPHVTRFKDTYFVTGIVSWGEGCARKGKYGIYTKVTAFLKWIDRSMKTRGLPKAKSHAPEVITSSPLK
Sequence (P00742 41-179 partner limits assumed): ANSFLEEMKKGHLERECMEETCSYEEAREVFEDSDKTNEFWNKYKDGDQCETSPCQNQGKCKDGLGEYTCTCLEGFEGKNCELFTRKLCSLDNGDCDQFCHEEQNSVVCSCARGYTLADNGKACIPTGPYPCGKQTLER
Counter-ions that a name gives are not always drawn.
Quantity Kind: Ki (µM)
Numbers only; they are read as µM.

{"columns": ["Compound", "Assay Result"],
 "data": [
  ["N=C(N)c1cccc(Cn2c(C(=O)NCc3cc(Cl)cc(Cl)c3)cc3c(O)cccc32)c1", 0.0048],
  ["CC(NC(=O)c1cc2ccccc2n1Cc1cccc(C(=N)N)c1)c1cc[n+](C)cc1 (racemic) [Example 2, trifluoroacetate trifluoroacetic acid …]", 0.1],
  ["CC(=O)O.CC(=O)[O-].CC(C)(C)OC(=O)Nc1ccc2c(c1)cc(C(=O)NCc1ccc([N+](C)(C)C)cc1)n2Cc1cccc(C(=N)N)c1 [Example 58, acetate acetic acid salt]", 0.014],
  ["C[N+](C)(C)Cc1ccc(CNC(=O)c2cc3ccccc3n2Cc2cccc(C(=N)N)c2)cc1 [Example 6, trifluoroacetate trifluoroacetic acid …]", 0.4],
  ["N=C(N)c1cccc(Cn2c(C(=O)NC(c3ccccc3)c3ccncc3)cc3ccccc32)c1.O=C(O)C(F)(F)F.O=C(O)C(F)(F)F (racemic) [Example 23, trifluoroacetic acid salt]", 7],
  ["C[C@@H](NC(=O)c1cc2cc(OCc3ccccc3)ccc2n1Cc1cccc(C(N)=S)c1)c1ccccc1", 4.8],
  ["N=C(N)c1cccc(CNC(=O)c2c(Cl)c3ccccc3n2Cc2cccc(C(=N)N)c2)c1", 0.009],
  ["CN1CCC(C(NC(=O)c2cc3ccccc3n2Cc2cccc(C(=N)N)c2)c2ccc3cc(Cl)ccc3c2)CC1.O=C(O)C(F)(F)F.O=C(O)C(F)(F)F (racemic) [Example 27, trifluoroacetic acid salt]", 0.61]
]}

Prompt: Give the value of Ki reported for the following: N=C(N)NCCC[C@H](NC(=O)c1cc2ccccc2n1Cc1ccc(C(=N)N)cc1)C(N)=O [Example 81, trifluoroacetic acid salt]
Response: 63

Prompt: Give the value of Ki reported for the following: Cc1cccc2c1cc(C(=O)NCc1ccc([N+](C)(C)C)cc1)n2Cc1cccc(C(=N)N)c1.O=C(O)C(F)(F)F.O=C([O-])C(F)(F)F [Example 35, trifluoroacetate trifluoroacetic acid …]
Response: 0.009

###

Quantity Kind: melting point

// below: answered compounds
{"columns": ["Compound", "melting point"],
 "data": [
  ["N=C(N)c1cccc(CNC(=O)c2cc3c(O)cccc3n2Cc2cccc(C(=N)N)c2)c1.O=C(O)C(F)(F)F.O=C(O)C(F)(F)F", "128 to 131 °C"],
  ["COc1cccc2c1cc(C(=O)NC(c1ccccc1)c1ccncc1)n2Cc1cccc(C(=N)N)c1.O=C(O)C(F)(F)F.O=C(O)C(F)(F)F (racemic)", "105 °C"],
  ["Cc1cccc2c1cc(C(=O)NCc1cccc(C(=N)N)c1)n2Cc1cccc(C(=N)N)c1.O=C(O)C(F)(F)F.O=C(O)C(F)(F)F", "242 to 243 °C"],
  ["CC(=O)O.C[C@@H](NC(=O)c1cc2cc(OCc3ccccc3)ccc2n1Cc1cccc(C(=N)N)c1)c1ccccc1", "72 °C (dec.)"]
]}

Prompt: Give the value of melting point reported for the following: `N=C(N)c1ccc(CNC(=O)c2cc3c(O)cccc3n2Cc2cccc(C(=N)N)c2)cc1.O=C(O)C(F)(F)F.O=C(O)C(F)(F)F`
Response: 155 to 157 °C

Prompt: Give the value of melting point reported for the following: `COc1cccc2c1cc(C(=O)NCCc1ccncc1)n2Cc1cccc(/C(N)=N/O)c1.Cl.Cl`
Response: 215 to 217 °C

Prompt: Give the value of melting point reported for the following: `CC[N+](C)(C)c1ccc(CNC(=O)c2cc3cc(F)ccc3n2Cc2cccc(C(=N)N)c2)cc1.O=C(O)C(F)(F)F.O=C([O-])C(F)(F)F`
Response: 73 to 75 °C (dec.)

Numbers sourced from patent US6337344B1.
